Test system: Candida tropicalis
assay.overview: The compound was tested for its antifungal activity against Candida tropicalis (MY1012)
Format: functional
Numbered stars: 1 amine (or outer) side, 2 acyl side, 3 side chain; on linkers, the order of the positions; unused ones are H or OH. Bridge positions count the residues as written; N and C are the ends. Square brackets hold non-standard residues; d marks the D form. Peptide text beside a SMILES is read from it. * marks the point of attachment. Orn(4R-OH,5R-OH) = O=C([C@H](C[C@@H](O)[C@@H](O)N[*:3])N[*:1])[*:2]; X3 = O=C([C@@H](N[*:1])[C@H](O)[C@@H](O)c1ccc(OP(=O)(O)O)cc1)[*:2]; X4 = O=C([C@@H](N[*:1])[C@H](O)[C@H](O)c1ccc(O)cc1)[*:2]; X2 = O=C([C@@H](N[*:1])[C@H](O)[C@@H](O)c1ccccc1)[*:2]; Gln(3R-OH) = NC(=O)C[C@@H](O)[C@H](N)C(=O)O; Pro(3S-OH) = O=C(O)[C@H]1NCC[C@@H]1O; Hyp = O=C(O)[C@@H]1C[C@@H](O)CN1; X1 = CCC(C)CC(C)CCCCCCCCC(=O)*
Reported values of MFC for individual entries
Unit µg/mL implied. Number only.

Examples with answers:
molecule: CCC(C)CC(C)CCCCCCCCC(=O)N[C@H]1C[C@@H](O)[C@@H](O)NC(=O)[C@@H]2[C@@H](O)CCN2C(=O)[C@H]([C@H](O)CC(N)=O)NC(=O)[C@H]([C@H](O)[C@@H](O)c2ccc(OP(=O)(O)O)cc2)NC(=O)[C@@H]2C[C@@H](O)CN2C(=O)[C@H]([C@@H](C)O)NC1=O (stereo partly drawn) (X1-[Orn(4R-OH,5R-OH)]T[Hyp][X3][Gln(3R-OH)][Pro(3S-OH)]; lactam 1-C)
unit.abbreviation: µg/mL
measured.value: 4
--
molecule: CCC(C)CC(C)CCCCCCCCC(=O)N[C@H]1C[C@@H](O)[C@@H](O)NC(=O)[C@@H]2[C@@H](O)CCN2C(=O)[C@H]([C@H](O)CC(N)=O)NC(=O)[C@H]([C@H](O)[C@@H](O)c2ccccc2)NC(=O)[C@@H]2C[C@@H](O)CN2C(=O)[C@H]([C@@H](C)O)NC1=O (stereo partly drawn) (X1-[Orn(4R-OH,5R-OH)]T[Hyp][X2][Gln(3R-OH)][Pro(3S-OH)]; lactam 1-C)
unit.abbreviation: µg/mL
measured.value: 1

Find the measured MFC of CCC(C)CC(C)CCCCCCCCC(=O)N[C@H]1C[C@@H](O)[C@@H](O)NC(=O)[C@@H]2[C@@H](O)CCN2C(=O)[C@H]([C@H](O)CC(N)=O)NC(=O)[C@H]([C@H](O)[C@H](O)c2ccc(O)cc2)NC(=O)[C@@H]2C[C@@H](O)CN2C(=O)[C@H]([C@@H](C)O)NC1=O (stereo partly drawn) (X1-[Orn(4R-OH,5R-OH)]T[Hyp][X4][Gln(3R-OH)][Pro(3S-OH)]; lactam 1-C) and report it.
64

These entries and their values trace back to ChEMBL document CHEMBL1127119.
